# experimental details: in vivo
# Parameters: species or system nude mice (BALB/c nu/nu)
# condition parameters: mouse, in vivo; intravenous, continuous 5 days, nude mice; maximum dose at which no animal was dead within 2 weeks; read-out: Maximum tolerated dose
recorded endpoint: MTD at 336 h (mg/kg/day)
Reply numerically in mg/kg/day, unit not repeated.

Item under review: CCCCCCCCC/C=C/C(=O)NCC(=O)N[C@@H]1[C@@H](O)[C@@H](O)[C@@H](Nc2ncnc3[nH]cnc23)O[C@H]1C(O)CO (stereo partly shown) . Reported MTD at 336 h?
18

Item under review: CCCCCCCCCCC(F)C(=O)NCC(=O)NC1C(O)C(O)C(Nc2ncnc3[nH]cnc23)OC1C(O)CO (stereo not shown) . Reported MTD at 336 h?
24

Item under review: O=C(CCCCCCCCCCCCl)NCC(=O)N[C@@H]1[C@@H](O)[C@@H](O)[C@@H](Nc2ncnc3[nH]cnc23)O[C@H]1C(O)CO (stereo partly shown) . Reported MTD at 336 h?
12

Item under review: CCCCCC/C=C\CCCCCCCC(=O)NCC(=O)N[C@@H]1[C@@H](O)[C@@H](O)[C@@H](Nc2ncnc3[nH]cnc23)O[C@H]1C(O)CO (stereo partly shown) . Reported MTD at 336 h?
3.4

Item under review: CCCCCCCCCCCCC(=O)NCC(=O)N[C@@H]1[C@@H](O)[C@@H](O)[C@@H](Nc2ncnc3[nH]cnc23)O[C@H]1C(O)CO (stereo partly shown) . Reported MTD at 336 h?
3.4

Item under review: CCCCCCCCCCCCCC[C@H](O)C(=O)NCC(=O)NC1C(O)C(O)C(Nc2ncnc3[nH]cnc23)OC1C(O)CO (stereo partly shown) . Reported MTD at 336 h?
2

Item under review: CCCCCCCCC/C=C/C=C/C(=O)NCC(=O)NC1C(O)C(O)C(Nc2ncnc3[nH]cnc23)OC1C(O)CO (stereo not shown) . Reported MTD at 336 h?
3

---

# experimental details: in vivo
# Set-up: species or system nude mice (BALB/c nu/nu)
# condition parameters: mouse, in vivo; intravenous, continuous 5 days, nude mice; maximum dose at which no animal was dead within 2 weeks; read-out: Maximum tolerated dose
Binary label based on MTD at 336 h with cut-off 8 mg/kg/day: below gives MET, not below gives NOT MET.

hey, is MTD at 336 h for O=C(CCCCCCCCCCCCBr)NCC(=O)N[C@@H]1[C@@H](O)[C@@H](O)[C@@H](Nc2ncnc3[nH]cnc23)O[C@H]1C(O)CO (stereo partly shown) lower than 8 mg/kg/day or not?
NOT MET

hey, is MTD at 336 h for CCCCCCCCCCC[C@H](O)CC(=O)NCC(=O)NC1C(O)C(O)C(Nc2ncnc3[nH]cnc23)OC1C(O)CO (single isomer, unassigned) lower than 8 mg/kg/day or not?
NOT MET

hey, is MTD at 336 h for CCCCS(=O)(=O)OCCCCCCCCCCCC(=O)NCC(=O)NC1C(O)C(O)C(Nc2ncnc3[nH]cnc23)OC1C(O)CO (stereo not shown) lower than 8 mg/kg/day or not?
NOT MET

hey, is MTD at 336 h for CCCCCCCCCCCCC(F)(F)C(=O)NCC(=O)NC1C(O)C(O)C(Nc2ncnc3[nH]cnc23)OC1C(O)CO (stereo not shown) lower than 8 mg/kg/day or not?
NOT MET

hey, is MTD at 336 h for CC(C)CCCCCCCCC(=O)NCC(=O)N[C@@H]1[C@@H](O)[C@@H](O)[C@@H](Nc2ncnc3[nH]cnc23)O[C@H]1C(O)CO (stereo partly shown) lower than 8 mg/kg/day or not?
MET

hey, is MTD at 336 h for CCCCCCCCCCCCCCC(O)C(=O)NCC(=O)NC1C(O)C(O)C(Nc2ncnc3[nH]cnc23)OC1C(O)CO (stereo not shown) lower than 8 mg/kg/day or not?
MET
